# method: Aqueous solubility of compound in PBS at pH 6.5
# Type: physicochemical
measurement_name: solubility

Data request: Given the entry CCOC(=O)c1sc(Nc2nc(NCc3ccc(S(N)(=O)=O)cc3)c3c(ncn3CC)n2)nc1C , report its measured solubility.
Data returned: 5 µg/mL

###

Exercise: state measured pIC50 for each of the compounds provided.
# target_desc: High affinity 3',5'-cyclic-AMP phosphodiesterase 7A (Homo sapiens, UniProt Q13946)
# Sequence (Q13946 whole entry, the tested form may be a part): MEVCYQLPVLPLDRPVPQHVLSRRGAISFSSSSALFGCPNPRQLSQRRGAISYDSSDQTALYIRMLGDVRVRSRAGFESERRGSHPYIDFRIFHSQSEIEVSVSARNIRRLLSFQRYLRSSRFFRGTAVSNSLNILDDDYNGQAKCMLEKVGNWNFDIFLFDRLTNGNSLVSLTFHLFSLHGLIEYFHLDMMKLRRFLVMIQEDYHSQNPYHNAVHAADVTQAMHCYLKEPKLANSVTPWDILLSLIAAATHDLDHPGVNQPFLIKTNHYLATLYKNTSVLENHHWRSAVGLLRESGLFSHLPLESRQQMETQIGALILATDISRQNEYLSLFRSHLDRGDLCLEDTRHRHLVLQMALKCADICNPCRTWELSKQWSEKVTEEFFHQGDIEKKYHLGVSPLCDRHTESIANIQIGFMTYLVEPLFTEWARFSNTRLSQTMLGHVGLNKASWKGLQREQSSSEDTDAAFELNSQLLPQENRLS
# method: Inhibition of recombinant PDE7A1 (130 to 482 residues) (unknown origin) expressed in Escherichia coli BL21 (DE3) using [3H]cAMP as substrate incubated for 15 mins by liquid scintillation method
Answers are plain numbers, as −log10 of the molar value.

Data request: Enter reported pIC50 observed with High affinity 3',5'-cyclic-AMP phosphodiesterase 7A (Homo sapiens, UniProt Q13946) for CCOc1ccc(-c2c(C(C)(C)O)oc(=O)c3ccccc23)cc1OC1CCCC1
Data returned: 5.85

New cases:
Data request: Query the reported pIC50 for High affinity 3',5'-cyclic-AMP phosphodiesterase 7A (Homo sapiens, UniProt Q13946); item: CCOC(=O)c1cc2c(=O)n3ccccc3nc2n(C2CCCCC2)/c1=N\C(C)=O
Data returned: 6.85

###

# method: Oral bioavailability in rat
# Assay type: ADME, organism-based
# cond: in vivo
measurement_name: bioavailability (%)
Numbers only, in %.

Data request: GET /values?readout=bioavailability&item= CN1CCN(C(=O)c2ccc(-c3cc(Cl)c4c(c3)C3(CCCCC3)NC(=O)N4)cc2)CC1
Data returned: 27

###

Hi! I'm sharing some pIC50 results obtained with 3',5'-cyclic-AMP phosphodiesterase 4D (Homo sapiens, UniProt Q08499).
Sequence (Q08499 whole entry): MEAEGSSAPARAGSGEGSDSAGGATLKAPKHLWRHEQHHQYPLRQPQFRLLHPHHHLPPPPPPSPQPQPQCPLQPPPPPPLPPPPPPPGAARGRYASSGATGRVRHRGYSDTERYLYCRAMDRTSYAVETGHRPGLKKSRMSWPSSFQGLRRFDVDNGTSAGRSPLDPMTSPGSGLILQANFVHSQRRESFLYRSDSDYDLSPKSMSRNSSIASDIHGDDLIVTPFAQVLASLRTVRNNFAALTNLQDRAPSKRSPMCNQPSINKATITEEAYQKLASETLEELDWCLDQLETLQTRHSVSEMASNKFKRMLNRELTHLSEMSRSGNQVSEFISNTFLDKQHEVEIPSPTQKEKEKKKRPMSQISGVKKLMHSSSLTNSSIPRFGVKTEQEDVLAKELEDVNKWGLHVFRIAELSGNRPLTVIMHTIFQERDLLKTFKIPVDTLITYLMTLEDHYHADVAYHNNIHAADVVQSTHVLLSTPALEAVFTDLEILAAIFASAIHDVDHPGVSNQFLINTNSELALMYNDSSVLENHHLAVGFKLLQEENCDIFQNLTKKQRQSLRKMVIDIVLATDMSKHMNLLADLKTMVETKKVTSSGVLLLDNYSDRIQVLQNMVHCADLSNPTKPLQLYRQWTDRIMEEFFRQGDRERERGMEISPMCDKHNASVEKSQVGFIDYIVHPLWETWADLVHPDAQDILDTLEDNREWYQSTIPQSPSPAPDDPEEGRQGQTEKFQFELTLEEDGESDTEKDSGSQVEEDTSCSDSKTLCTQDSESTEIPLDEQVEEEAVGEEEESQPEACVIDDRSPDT
Answers are plain numbers, as −log10 of the molar value.

Data request: For Cn1nc(-c2ccc(C(N)=O)cc2)s/c1=N\C1CCCCC1 , what is its reported pIC50?
Data returned: 7.21

Data request: Request the reported pIC50 associated with Cn1nc(-c2ccc(Cl)cc2)s/c1=N\c1ccc(F)c(C(=O)O)c1
Data returned: 6.80

Moving on to the next molecule.
Data request: // pIC50 lookup, key: Cn1nc(-c2ccc(C(N)=O)cc2)s/c1=N\[C@@H]1CCC[C@@H](O)C1
Data returned: 7.06

###

# target_desc: 3',5'-cyclic-AMP phosphodiesterase 4B (Homo sapiens)
# Sequence (Q07343 whole entry): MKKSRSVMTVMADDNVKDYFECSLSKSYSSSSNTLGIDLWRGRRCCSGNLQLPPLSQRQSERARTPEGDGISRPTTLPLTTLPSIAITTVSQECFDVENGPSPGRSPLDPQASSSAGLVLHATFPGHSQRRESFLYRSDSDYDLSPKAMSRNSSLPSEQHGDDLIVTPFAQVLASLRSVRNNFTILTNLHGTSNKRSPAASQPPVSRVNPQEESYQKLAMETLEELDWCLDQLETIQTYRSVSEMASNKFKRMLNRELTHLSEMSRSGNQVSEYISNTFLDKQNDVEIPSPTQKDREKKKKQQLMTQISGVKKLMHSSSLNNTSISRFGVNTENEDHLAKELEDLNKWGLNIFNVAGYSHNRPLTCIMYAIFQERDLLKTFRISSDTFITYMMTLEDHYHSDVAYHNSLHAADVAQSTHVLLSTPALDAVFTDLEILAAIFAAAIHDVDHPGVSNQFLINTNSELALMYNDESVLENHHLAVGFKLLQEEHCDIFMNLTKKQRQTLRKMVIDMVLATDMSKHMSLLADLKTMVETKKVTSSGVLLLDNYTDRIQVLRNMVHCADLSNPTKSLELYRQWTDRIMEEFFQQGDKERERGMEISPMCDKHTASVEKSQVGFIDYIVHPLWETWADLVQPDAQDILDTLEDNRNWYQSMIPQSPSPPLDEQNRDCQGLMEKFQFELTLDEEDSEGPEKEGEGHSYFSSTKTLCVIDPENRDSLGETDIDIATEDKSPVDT
measurement_name: pIC50
Answers are plain numbers, as −log10 of the molar value.

Data request: # get_value(readout= pIC50, system= 3',5'-cyclic-AMP phosphodiesterase 4B (Homo sapiens)) for CCOC(=O)c1cc2c(=O)n3ccccc3nc2n(C2CCCCC2)/c1=N\C(C)=O
Data returned: 6.52

###

# target_desc: High affinity 3',5'-cyclic-AMP phosphodiesterase 7A (Homo sapiens)
# method: Inhibition of PDE7A (unknown origin)
measurement_name: IC50 (nM)
Give bare numbers, in nM.

Data request: Look up IC50: COc1ccc(C2=NN(C3CCCC3)C(=O)[C@@H]3CC=CC[C@H]23)cc1Cl
Data returned: 18.6

Query molecule follows.
Data request: Name the recorded IC50 for CCn1ncc2c(NC3CCOCC3)c(-c3nnc(Cc4sc(C)nc4C)o3)cnc21 .
Data returned: 0.76

###

The listing below reports pIC50 for molecules tested on 3',5'-cyclic-AMP phosphodiesterase 7B (Homo sapiens, UniProt Q9NP56).
Sequence (Q9NP56 whole entry): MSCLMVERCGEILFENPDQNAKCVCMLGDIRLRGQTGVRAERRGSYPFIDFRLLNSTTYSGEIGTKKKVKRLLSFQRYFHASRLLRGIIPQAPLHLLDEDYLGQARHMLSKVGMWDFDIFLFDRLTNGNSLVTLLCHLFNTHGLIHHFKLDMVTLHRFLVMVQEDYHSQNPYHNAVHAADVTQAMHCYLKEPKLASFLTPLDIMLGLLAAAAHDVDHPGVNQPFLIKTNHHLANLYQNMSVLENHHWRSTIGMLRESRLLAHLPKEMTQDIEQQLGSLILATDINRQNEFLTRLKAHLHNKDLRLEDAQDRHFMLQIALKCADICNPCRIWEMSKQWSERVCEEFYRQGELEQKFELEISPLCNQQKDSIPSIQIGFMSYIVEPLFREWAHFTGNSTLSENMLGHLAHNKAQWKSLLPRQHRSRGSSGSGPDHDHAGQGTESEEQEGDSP
Answers are plain numbers, as −log10 of the molar value.

Look at each molecule and report its pIC50.
1. COc1ccc(-c2cc3c(n2-c2ccc(S(=O)(=O)Nc4nc(C)cc(C)n4)cc2)CCC(N2CCN(C)CC2)C3)cc1C (centres undefined)
2. CCOc1cc2cc(CO)c(CO)c(-c3ccnc(-n4nc(-c5cccnc5)c5ccccc5c4=O)c3)c2cc1OCC
3. COc1ccc(C2=NN(C3CCN(C(=O)N4CCOCC4)CC3)C(=O)[C@@H]3CC=CC[C@H]23)cc1Cl
4. O=c1c2ccccc2[nH]c(=S)n1-c1ccccc1

Data returned:
7.85
5.77
7.64
5.06
